I'd be grateful if you could share measured ka1 (two-state model, association) for these entries.
Target System: T1, recombinant human Cyclophilin A (CypA) (human, UniProt P62937 1-165)
T1 construct: also called human peptidyl prolyl isomerase CypA; source: E. coli BL21(DE3), pET11c, purified (DEAE-Sepharose flow-through, MonoS cation exchange)
T1 sequence (P62937 whole entry): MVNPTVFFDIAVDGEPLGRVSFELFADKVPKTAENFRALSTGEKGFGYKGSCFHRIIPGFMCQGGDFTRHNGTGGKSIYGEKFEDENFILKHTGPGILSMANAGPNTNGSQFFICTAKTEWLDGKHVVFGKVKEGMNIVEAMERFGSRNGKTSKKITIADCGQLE
Test Description: SPR
Run Parameters: both partners purified
One number for each entry, in M⁻¹ s⁻¹.

RHFPRIW (source: synthetic peptide) [synthetic HIV-1 Vpr peptide sVpr^32-38]
924
ELLEELKSEAVRHFPRIWLH (source: synthetic peptide) [synthetic HIV-1 Vpr peptide sVpr^21-40]
466
ELKSEAVRHFPRIWLH (source: synthetic peptide) [synthetic HIV-1 Vpr peptide sVpr^25-40]
2000
HFPRI (source: synthetic peptide) [synthetic HIV-1 Vpr peptide sVpr^33-37]
120

# input for lookup
Problem: Requested field: ka1 (two-state model, association). Item: AVRHFPRIWLH (source: synthetic peptide) [synthetic HIV-1 Vpr peptide sVpr^30-40]
Solution: 2470
